Reference for the values: ChEMBL document CHEMBL6083180

- System: HL-60
- assay: Antiproliferative activity against human HL-60 cells at 100 nM incubated for 72 hrs by MTT assay relative to control
- Assay type: functional
experimentalReadout: inhibition at 0.1 µM (%)
Your answer should be a plain number; it is taken to be in %.

Which inhibition at 0.1 µM value is on record for CC1[C@H](O)CC(=C/C=C2\CCC[C@@]3(C)[C@H]2CCCC[C@H]3[C@H](C)CCCC(C)(C)O)C[C@H]1O (stereo partly specified) ?
20.5

Which inhibition at 0.1 µM value is on record for C=C1/C(=C\C=C2/CCC[C@]3(C)[C@@H]([C@H](C)CCCC(C)(C)O)CC[C@@H]23)C[C@@H](O)C[C@@H]1O [CALCITRIOL] ?
35.9

Which inhibition at 0.1 µM value is on record for C[C@H](CCCC(C)(C)O)[C@@H]1CCCC[C@H]2/C(=C/C=C3C[C@@H](O)C[C@H](O)C3)CCC[C@@]21C ?
17.9

Which inhibition at 0.1 µM value is on record for C[C@H](CCCC(C)(C)O)[C@@H]1CCCC[C@H]2/C(=C/C=C3C[C@@H](O)C(=CCCO)[C@H](O)C3)CCC[C@@]21C ?
22.1

Which inhibition at 0.1 µM value is on record for C=C1/C(=C\C=C2/CCC[C@@]3(C)[C@H]2CCCC[C@H]3[C@H](C)CCCC(C)(C)O)C[C@@H](O)C[C@@H]1O ?
17.1

Which inhibition at 0.1 µM value is on record for C=C1[C@H](O)CC(=C/C=C2\CCC[C@@]3(C)[C@H]2CCCC[C@H]3[C@H](C)CCCC(C)(C)O)C[C@H]1O ?
35

###

Give inhibition at 1 µM for every item shown.
- Test system: MV4-11
- assay: Antiproliferative activity against human MV4-11 cells at 1000 nM incubated for 72 hrs by MTT assay relative to control
- Assay type: functional
Your answer should be a plain number; it is taken to be in %.

Which inhibition at 1 µM value is on record for C=C1[C@H](O)CC(=C/C=C2\CCC[C@@]3(C)[C@H]2CCCC[C@H]3[C@H](C)CCCC(C)(C)O)C[C@H]1O ?
50

Which inhibition at 1 µM value is on record for C[C@H](CCCC(C)(C)O)[C@@H]1CCCC[C@H]2/C(=C/C=C3C[C@@H](O)C[C@H](O)C3)CCC[C@@]21C ?
31.2

Which inhibition at 1 µM value is on record for C[C@H](CCCC(C)(C)O)[C@@H]1CCCC[C@H]2/C(=C/C=C3C[C@@H](O)C(=CCCO)[C@H](O)C3)CCC[C@@]21C ?
32

Which inhibition at 1 µM value is on record for CC1[C@H](O)CC(=C/C=C2\CCC[C@@]3(C)[C@H]2CCCC[C@H]3[C@H](C)CCCC(C)(C)O)C[C@H]1O (stereo partly specified) ?
29.7

Which inhibition at 1 µM value is on record for C=C1/C(=C\C=C2/CCC[C@]3(C)[C@@H]([C@H](C)CCCC(C)(C)O)CC[C@@H]23)C[C@@H](O)C[C@@H]1O [CALCITRIOL] ?
48.8

Which inhibition at 1 µM value is on record for C=C1/C(=C\C=C2/CCC[C@@]3(C)[C@H]2CCCC[C@H]3[C@H](C)CCCC(C)(C)O)C[C@@H](O)C[C@@H]1O ?
42.8
